Below is a list of entries, each paired with its recorded EC50 value.
- System: Influenza A virus
- test.method.notes: microbe, parasite or virus in culture
- condition.notes: MDCK
readout.label: EC50 (nM)

compound: OC12CC3CC(C1)CC(NCc1ccc(I)s1)(C3)C2
readout.label: EC50
comparison.symbol: =
observed.measurement: 400
--
compound: OC12CC3CC(C1)CC(NCc1ccc(Br)s1)(C3)C2
readout.label: EC50
comparison.symbol: =
observed.measurement: 700
--
compound: CCC(CC)O[C@@H]1C=C(C(=O)O)C[C@H](N)[C@H]1NC(C)=O [OSELTAMIVIR CARBOXYLATE]
readout.label: EC50
comparison.symbol: >
observed.measurement: 200
